Assay: Solution stability test (residual ratio and generation of active form in buffers of pH 2.0 to 9.0)
Format: physicochemical
Conditions: pH3.0 buffer, 25° C., 25 umol/L, 6 hr
Counter-ions that a name gives are not always drawn.
PROPERTY LABEL: Residual ratio (%)

{"COMPOUND": "NCCCNC(=O)Oc1c(OC(=O)NCCCN)c(-c2ccccc2)c2c(c1-c1ccccc1)OCO2", "QUANTITY UNIT": "%", "MEASURED RESULT": 100}
{"COMPOUND": "C[C@H]1COc2c1c(OC(=O)NCCNCC(=O)O)c(OC(=O)NCCNCC(=O)O)c1c3c(ccc21)C(C)(C)CCC3 [Example 12, dihydrochloride]", "QUANTITY UNIT": "%", "MEASURED RESULT": 98.9}
{"COMPOUND": "CC(=O)c1cc2c(OC(=O)NCCNCC(=O)O)c3ccsc3c(OC(=O)NCCNCC(=O)O)c2o1 [Example 1, dihydrochloride]", "QUANTITY UNIT": "%", "MEASURED RESULT": 95.3}
{"COMPOUND": "CN1CC[C@H](c2c(OC(=O)N(C)CCN)cc(O)c3c(=O)cc(-c4ccccc4Cl)oc23)[C@H](O)C1", "QUANTITY UNIT": "%", "MEASURED RESULT": 100}
{"COMPOUND": "Cc1cc(OC(=O)NCCNCC(=O)O)c2ccccc2c1OC(=O)NCCNCC(=O)O [Example 2, dihydrochloride]", "QUANTITY UNIT": "%", "MEASURED RESULT": 101}
{"COMPOUND": "CC(=O)c1cc2c(O)c3c(O)cccc3c(OC(=O)NCCCN)c2o1 [Reference Example 9, hydrochloride]", "QUANTITY UNIT": "%", "MEASURED RESULT": 100}
{"COMPOUND": "C[C@H]1COc2c1c(OC(=O)NCCCNCC(=O)O)c(OC(=O)NCCCNCC(=O)O)c1c3c(ccc21)C(C)(C)CCC3 [Example 13, dihydrochloride]", "QUANTITY UNIT": "%", "MEASURED RESULT": 100}
